B1: TRAF3IP2 (parent)
chain: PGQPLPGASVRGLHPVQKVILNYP

Variants of: B1
Experiment: protein stability index of a GFP-peptide fusion (GPS, HEK-293T) (PSI 1-6); higher = more stable;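 further: lentivirally expressed fusions sorted by FACS into six bins by GFP to DsRed ratio, PSI derived from sequencing read proportions per bin multiplied by bin number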
Details: c terminus: a fixed tail appended
Quantity measured: protein stability index

Would you please look over these solved cases?
- Variant id: "S9E"
  Experimental result: 2.92
- Variant id: "V10S"
  Experimental result: 3
- Variant id: "Q3K"
  Experimental result: 3.09
- Variant id: "G7A"
  Experimental result: 3.02
- Variant id: "G7P"
  Experimental result: 3.04

Query: Entry `V16C` has what protein stability index?
Result: 2.93
